# Tgt: T1, human scavenger receptor class B, type 1 (SR-BI) (human, UniProt Q8WTV0 1-552)
# T1 sequence (looked up): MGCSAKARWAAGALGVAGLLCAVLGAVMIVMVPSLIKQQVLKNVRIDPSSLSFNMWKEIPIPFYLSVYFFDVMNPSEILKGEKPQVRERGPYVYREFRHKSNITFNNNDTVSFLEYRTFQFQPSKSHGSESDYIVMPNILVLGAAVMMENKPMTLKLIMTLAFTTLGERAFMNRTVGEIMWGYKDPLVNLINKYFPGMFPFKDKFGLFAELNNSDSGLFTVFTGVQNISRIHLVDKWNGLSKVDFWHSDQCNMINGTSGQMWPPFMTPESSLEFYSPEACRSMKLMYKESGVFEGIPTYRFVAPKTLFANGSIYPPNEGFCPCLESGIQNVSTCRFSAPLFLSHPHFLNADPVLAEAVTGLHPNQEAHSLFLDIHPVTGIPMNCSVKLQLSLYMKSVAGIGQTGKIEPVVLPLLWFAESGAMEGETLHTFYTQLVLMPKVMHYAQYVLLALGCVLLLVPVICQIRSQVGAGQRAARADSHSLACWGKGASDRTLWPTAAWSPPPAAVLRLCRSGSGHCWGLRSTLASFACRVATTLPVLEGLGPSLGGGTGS
# Experiment: cell-based or functional assay
Non-standard residues stand in square brackets, D forms with d. No end group written: not given here. Aib = CC(C)(N)C(=O)O
Assay readout: Increase Over Un-induced (DiI uptake, BHK(SR-BI) cells) (%)
Write down the numeric answer in % and omit the unit.

Exam item: Give a short answer stating reported Increase Over Un-induced (DiI uptake, BHK(SR-BI) cells) for DVFQKLVELFNQLLEKWKQV (also: peptide amphiphile lipid micelle with POPC, egg sphingomyelin, DiI) [DiI-labeled PALM prepared with the peptide of SEQ ID NO: 26] .
Marked response: 65

Exam item: Give a short answer stating reported Increase Over Un-induced (DiI uptake, BHK(SR-BI) cells) for DVFQ[Aib]LKELFNQLLEKWKQV (also: formulated in a micelle with POPC, egg sphingomyelin and DiI) [DiI-labeled PALM prepared with the peptide of SEQ ID NO: 3] .
Marked response: 88

Exam item: Tell me Increase Over Un-induced (DiI uptake, BHK(SR-BI) cells) reported for DVFQKL[Aib]ELFNQL[Aib]EKWKQV (also: formulated as DiI-labeled peptide amphiphile lipid micelle with POPC and egg sphingomyelin) [DiI-labeled PALM prepared with the peptide of SEQ ID NO: 35]
Marked response: 264

FYI, the data here is from patent US20240189230A1.
